subject-of-test: JARID1B (Homo sapiens, UniProt Q9UGL1)
Construct: The FLAG tagged full length JARID1B enzyme was expressed in Sf21 insect cells using FLAG-JARID1B baculoviruses; FLAG (N); made in house; host or cells: Sf21 insect cells (baculovirus)
Sequence (Q9UGL1 whole entry): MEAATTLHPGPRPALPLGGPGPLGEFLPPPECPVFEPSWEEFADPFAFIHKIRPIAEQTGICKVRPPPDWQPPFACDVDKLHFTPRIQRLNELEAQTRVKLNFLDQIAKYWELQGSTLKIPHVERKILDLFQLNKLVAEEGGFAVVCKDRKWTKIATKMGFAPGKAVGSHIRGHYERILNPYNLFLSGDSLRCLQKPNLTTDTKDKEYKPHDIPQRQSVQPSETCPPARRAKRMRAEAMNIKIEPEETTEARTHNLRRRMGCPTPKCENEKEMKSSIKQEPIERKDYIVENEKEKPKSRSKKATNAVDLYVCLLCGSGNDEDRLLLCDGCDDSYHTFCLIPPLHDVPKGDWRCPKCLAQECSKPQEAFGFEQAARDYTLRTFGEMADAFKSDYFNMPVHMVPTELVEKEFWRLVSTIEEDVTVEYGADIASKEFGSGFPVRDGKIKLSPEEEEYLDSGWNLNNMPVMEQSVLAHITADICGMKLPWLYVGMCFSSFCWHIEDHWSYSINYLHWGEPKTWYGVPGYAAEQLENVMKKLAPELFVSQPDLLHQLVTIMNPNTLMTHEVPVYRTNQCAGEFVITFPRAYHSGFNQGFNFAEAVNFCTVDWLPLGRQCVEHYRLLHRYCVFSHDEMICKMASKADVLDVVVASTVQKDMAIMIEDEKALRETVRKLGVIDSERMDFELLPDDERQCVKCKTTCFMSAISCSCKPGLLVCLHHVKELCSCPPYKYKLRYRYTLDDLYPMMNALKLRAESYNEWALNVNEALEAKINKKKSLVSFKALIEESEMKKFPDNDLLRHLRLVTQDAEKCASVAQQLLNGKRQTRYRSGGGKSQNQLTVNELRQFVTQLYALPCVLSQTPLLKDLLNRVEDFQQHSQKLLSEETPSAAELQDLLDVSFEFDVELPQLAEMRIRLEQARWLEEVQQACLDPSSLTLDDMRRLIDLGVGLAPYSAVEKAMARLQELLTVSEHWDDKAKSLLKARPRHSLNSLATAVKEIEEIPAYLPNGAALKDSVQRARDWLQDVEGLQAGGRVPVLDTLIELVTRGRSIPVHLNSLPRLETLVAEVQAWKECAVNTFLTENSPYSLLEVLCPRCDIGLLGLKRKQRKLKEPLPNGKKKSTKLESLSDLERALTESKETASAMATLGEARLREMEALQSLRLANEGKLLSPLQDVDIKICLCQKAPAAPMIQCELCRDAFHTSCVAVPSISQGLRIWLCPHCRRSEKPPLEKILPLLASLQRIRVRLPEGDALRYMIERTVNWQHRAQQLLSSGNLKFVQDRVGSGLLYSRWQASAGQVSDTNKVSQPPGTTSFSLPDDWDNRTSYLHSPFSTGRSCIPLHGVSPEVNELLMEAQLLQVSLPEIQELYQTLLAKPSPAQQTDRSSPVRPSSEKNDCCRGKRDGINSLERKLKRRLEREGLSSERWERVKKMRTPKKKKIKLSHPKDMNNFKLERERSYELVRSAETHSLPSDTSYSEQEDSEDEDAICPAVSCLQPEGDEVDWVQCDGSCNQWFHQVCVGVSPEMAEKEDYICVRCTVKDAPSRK
procedure-details: FLAG-JARID1B histone demethylase assay with AlphaScreen detection (HTS and dose response)
Format: biochemical
test-conditions: high-throughput screen, compound 20 μM, standard demethylase conditions (10 μM α-KG, 50 μM Fe (II)); read-out: Inhibitory effect (percent)
Where a name gives a salt, the structure may show the parent alone.
Below: a set of entries, each annotated with reported inhibition at 20 µM.
Kindly answer with a numeric value in %, unit omitted.

Task item: Can you look up the measured inhibition at 20 µM of NCCc1ccc(O)c(O)c1 [YU033802, DOPAMINE HYDROCHLORIDE, reference compound] for me?
Reply: 51.3

Task item: Item under review: Cc1cccc(OCC(=O)Nc2ccccc2OC(F)F)c1C . Reported inhibition at 20 µM?
Reply: 99.6

Task item: Record request: inhibition at 20 µM value, item Cc1cc(-c2ccc(NC(=O)CCC(=O)O)c(C)c2)ccc1NC(=O)CCC(=O)O
Reply: 55.2

Task item: Which inhibition at 20 µM is reported for this compound? Oc1c(C(Nc2ccccc2Cl)c2cccnc2)ccc2cccnc12 (centres unmarked)
Reply: 56

----------
subject-of-test: JARID1B (Homo sapiens)
Construct: The FLAG tagged full length JARID1B enzyme was expressed in Sf21 insect cells using FLAG-JARID1B baculoviruses; FLAG (N); made in house; host or cells: Sf21 insect cells (baculovirus)
procedure-details: FLAG-JARID1B histone demethylase assay with AlphaScreen detection (HTS and dose response);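 also: FLAG-tagged JARID1B at 4 nM acting on a biotinylated H3K4me3 peptide, demethylation read by AlphaScreen luminescence, with hits checked against bio-H3K4me2 without enzyme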
Type: biochemical
test-conditions: high-throughput screen, compound 20 μM, standard demethylase conditions (10 μM α-KG, 50 μM Fe (II)); read-out: Inhibitory effect (percent)
Kindly return MET if reported inhibition at 20 µM is no lower than 60%; return NOT MET if it is lower.

Use these answered entries as a reference point.
> print(dat)
                                   molecule  class.label
1  O=C1C=C2C[C@@]3(O)COc4cc(O)ccc4C3=C2C=C1O [YU155025, BRAZILEIN, reference compound]          MET
2  Cc1cc(C)nc(N(C#N)C(=S)N(C)C)n1 [YU145655]      NOT MET
3  Cc1ccc(S(=O)(=O)C=CC#N)cc1 (single isomer, unassigned) [YU154885, BAY 11-7082, reference compound]      NOT MET
4     N#Cc1c(O)nc(S)nc1-c1ccccc1 [YU145521]          MET
5  CC(=O)Nc1ccc(N(C)CCCc2c(C)nn(C)c2C)c(C(=O)O)c1 [YU208230]      NOT MET

Task item: Textbook exercise: given the entry Cc1cc(OCc2nc3ccccc3s2)ccc1N [YU147615] , state whether its inhibition at 20 µM is greater than or equal to 60%.
Reply: NOT MET

Task item: Decide: inhibition at 20 µM of CC(O)Cc1nnc(S)n1-c1ccccc1 (stereo not drawn) [YU145796] >= 60%?
Reply: NOT MET

Task item: Determine whether measured inhibition at 20 µM meets or exceeds 60% for Cc1cc(C(=O)Nc2c(C)n(C)n(-c3ccccc3)c2=O)c(C)o1 [YU153128]
Reply: MET
